The origin of these recorded values is patent US20220380371A1.

# studyTarget: wild type MLL1 five-member complex (MLL1-5C) (Homo sapiens, UniProt Q03164)
# testProtocol: MLL1 Flashplate Assay
# details: read-out: MLL1 flash plate
pIC50: −log10 of the molar value.
Items are presented alongside their recorded pIC50.
recordedEndpoint: pIC50

- smilesNotation: "N#Cc1c(F)ccc(N2CC[C@](N)(C(=O)NC3CC3)C2)c1Cn1cnc2c(N)ncnc21"
  result: "< 7.00"
- smilesNotation: "Nc1ncnc2c1ncn2Cc1c(CN2CCOCC2)c(F)cc(Cl)c1N1CC[C@](N)(C(=O)NC2CC2)C1"
  result: "< 7.00"
- smilesNotation: "COC[C@@]1(N)CCN(c2cc(Cl)cc(Br)c2Cn2cnc3c(N)ncnc32)C1"
  result: "7.00 to 7.22"
- smilesNotation: "Nc1ncnc2c1ncn2Cc1c(Br)c(Cl)cc(Cl)c1N1CC[C@](N)(C(=O)NC2CC2)C1"
  result: "> 7.22"

---

# System: MV4-11 cells
# testProtocol: MV4-11 6-Day Cell Growth CTG (CellTiter-Glo) Assay
# Format: cell-based
# details: Homo sapiens, MV4-11, 144 h, MV4-11 cell growth CellTiter-Glo, 6 days
Items are presented alongside their recorded IC50.

- molecule: "Nc1ncnc2c1ncn2Cc1c(N2CC[C@](N)(C(=O)NC3CC3)C2)ccc(C(F)(F)F)c1Br [Example 41]"
  IC50: "< 2000 nM"
- molecule: "C[C@@H](NC(=O)[C@@]1(N)CCN(c2ccc(F)c(C(F)(F)F)c2Cn2cnc3c(N)ncnc32)C1)C1CCOCC1 [Example 124]"
  IC50: "< 2000 nM"
- molecule: "Nc1ncnc2c1ncn2Cc1c(CC(F)(F)F)cc(Cl)cc1N1CC[C@](N)(C(=O)NC2CC2)C1 [Example 7]"
  IC50: "> 3000 nM"
- molecule: "Cc1c(C(F)(F)F)ccc(N2CC[C@](N)(C(=O)NC3CC3)C2)c1Cn1cnc2c(N)ncnc21 [Example 11]"
  IC50: "< 2000 nM"

---

Items are presented alongside their recorded IC50.
# studyTarget: wild type MLL1 four-member complex (MLL1-4C) (Homo sapiens, UniProt Q03164)
# testProtocol: MLL1 LC-MS Assay
# Format: biochemical
# details: read-out: LCMS
recordedEndpoint: IC50

- smilesNotation: "COC(=O)[C@@]1(N)CCN(c2cc(Cl)cc(C3CCC3)c2Cn2cnc3c(N)ncnc32)C1"
  studyTarget: "wild type MLL1 four-member complex (MLL1-4C) (Homo sapiens, UniProt Q03164)"
  recordedEndpoint: "IC50"
  result: "< 50 nM"
- smilesNotation: "Nc1ncnc2c1ncn2Cc1c(N2CC[C@](N)(C(=O)NC3CC3)C2)ccc(F)c1CN1C[C@H]2CC[C@@H](C1)O2"
  studyTarget: "wild type MLL1 four-member complex (MLL1-4C) (Homo sapiens, UniProt Q03164)"
  recordedEndpoint: "IC50"
  result: "50 to 100 nM"
- smilesNotation: "C=Cc1cc(Cl)cc(N2CC[C@](N)(c3nc[nH]n3)C2)c1Cn1cnc2c(N)ncnc21"
  studyTarget: "wild type MLL1 four-member complex (MLL1-4C) (Homo sapiens, UniProt Q03164)"
  recordedEndpoint: "IC50"
  result: "< 50 nM"
- smilesNotation: "Nc1ncnc2c1ncn2Cc1c(N2CC[C@](N)(C(=O)Nc3cc(C4CC4)n[nH]3)C2)ccc(F)c1C(F)(F)F"
  studyTarget: "wild type MLL1 four-member complex (MLL1-4C) (Homo sapiens, UniProt Q03164)"
  recordedEndpoint: "IC50"
  result: "> 100 nM"

---

# studyTarget: wild type MLL1 four-member complex (MLL1-4C) (Homo sapiens, UniProt Q03164)
# testProtocol: MLL1 LC-MS Assay
# Type: biochemical
# details: read-out: LCMS
Items are presented alongside their recorded IC50.

- molecule: "CC1CN(Cc2c(F)ccc(N3CC[C@](N)(C(=O)NC4CC4)C3)c2Cn2cnc3c(N)ncnc32)C1"
  studyTarget: "wild type MLL1 four-member complex (MLL1-4C) (Homo sapiens, UniProt Q03164)"
  IC50: "50 to 100 nM"
- molecule: "Nc1ncnc2c1ncn2Cc1c(Br)c(Cl)c(Cl)c(Cl)c1N1CCC(N)(C(=O)NC2CC2)C1 (stereo not shown)"
  studyTarget: "wild type MLL1 four-member complex (MLL1-4C) (Homo sapiens, UniProt Q03164)"
  IC50: "50 to 100 nM"
- molecule: "Cn1nnc([C@@]2(N)CCN(c3cc(Cl)cc(Br)c3Cn3cnc4c(N)ncnc43)C2)n1"
  studyTarget: "wild type MLL1 four-member complex (MLL1-4C) (Homo sapiens, UniProt Q03164)"
  IC50: "50 to 100 nM"
- molecule: "Nc1ncnc2c1ncn2Cc1c(Br)cc(Cl)cc1N1CC[C@](N)(c2nc[nH]n2)C1"
  studyTarget: "wild type MLL1 four-member complex (MLL1-4C) (Homo sapiens, UniProt Q03164)"
  IC50: "< 50 nM"
- molecule: "CN(C)Cc1c(F)cc(Cl)c(N2CC[C@](N)(C(=O)NC3CC3)C2)c1Cn1cnc2c(N)ncnc21"
  studyTarget: "wild type MLL1 four-member complex (MLL1-4C) (Homo sapiens, UniProt Q03164)"
  IC50: "> 100 nM"
- molecule: "[2H]C([2H])([2H])OCc1c(F)ccc(N2CC[C@](N)(C(=O)NC3CC3)C2)c1Cn1cnc2c(N)ncnc21"
  studyTarget: "wild type MLL1 four-member complex (MLL1-4C) (Homo sapiens, UniProt Q03164)"
  IC50: "50 to 100 nM"
- molecule: "CCN(Cc1c(F)ccc(N2CC[C@](N)(C(=O)NC3CC3)C2)c1Cn1cnc2c(N)ncnc21)C1CC1"
  studyTarget: "wild type MLL1 four-member complex (MLL1-4C) (Homo sapiens, UniProt Q03164)"
  IC50: "< 50 nM"

---

# studyTarget: wild type MLL1 four-member complex (MLL1-4C) (Homo sapiens)
# testProtocol: MLL1 LC-MS Assay
# Assay type: biochemical
# details: read-out: LCMS
Items are presented alongside their recorded IC50.
recordedEndpoint: IC50

- compound: "Nc1ncnc2c1ncn2Cc1c(N2CC[C@](N)(C(=O)NC3CC3)C2)ccc(Cl)c1COC1CCOC1 (stereo partly shown)"
  recordedEndpoint: "IC50"
  result: "50 to 100 nM"
- compound: "COC(=O)NCc1c(F)ccc(N2CC[C@](N)(C(=O)NC3CC3)C2)c1Cn1cnc2c(N)ncnc21"
  recordedEndpoint: "IC50"
  result: "< 50 nM"
- compound: "C[C@@H]1CN(C(=O)[C@@]2(N)CCN(c3ccc(F)c(C(F)(F)F)c3Cn3cnc4c(N)ncnc43)C2)CCO1"
  recordedEndpoint: "IC50"
  result: "50 to 100 nM"
- compound: "Nc1ncnc2c1ncn2Cc1c(N2CC[C@](N)(C(=O)NC3CCOC3)C2)ccc(F)c1C(F)(F)F (stereo partly shown)"
  recordedEndpoint: "IC50"
  result: "< 50 nM"
- compound: "Nc1ncnc2c1ncn2Cc1c(Br)cc(Cl)cc1N1CC[C@](N)(CO)C1 [Example 19]"
  recordedEndpoint: "IC50"
  result: "50 to 100 nM"
- compound: "CCNC(=O)CC[C@@]1(N)CCN(c2cc(Cl)cc(CC)c2Cn2cnc3c(N)ncnc32)C1"
  recordedEndpoint: "IC50"
  result: "< 50 nM"
- compound: "Nc1ncnc2c1ncn2Cc1c(N2CC[C@](N)(C(=O)NC3CC3)C2)ccc2c1OC(F)(F)O2"
  recordedEndpoint: "IC50"
  result: "< 50 nM"

---

# Tested on: H3K4me3 in MV4-11 cells
# testProtocol: MV4-11 H3K4me3 Cellular ELISA Assay
# Assay type: cell-based
# details: Homo sapiens, MV4-11, 48 h
pIC50: −log10 of the molar value.
Items are presented alongside their recorded pIC50.

- molecule: "Nc1ncnc2c1ncn2Cc1c([C@@H](O)C(F)(F)F)cc(Cl)cc1N1CC[C@](N)(C(=O)NC2CC2)C1"
  pIC50: "5.52 to 5.72"
- molecule: "Nc1ncnc2c1ncn2Cc1c(Br)cc(Cl)cc1N1CC[C@](N)(COCC(=O)NC2CC2)C1"
  pIC50: "< 5.52"
- molecule: "CCNC(=O)CC[C@@]1(N)CCN(c2cc(Cl)cc(CC)c2Cn2cnc3c(N)ncnc32)C1"
  pIC50: "< 5.52"
- molecule: "Nc1ncnc2c1ncn2Cc1c(N2CC[C@](N)(C(=O)NCCc3c[nH]cn3)C2)ccc(F)c1C(F)(F)F"
  pIC50: "> 5.72"
- molecule: "Nc1ncnc2c1ncn2Cc1c(N2CC[C@](N)(C(=O)NC3CC3)C2)ccc(C(F)(F)F)c1CN1CCC1"
  pIC50: "> 5.72"
- molecule: "Nc1ncnc2c1ncn2Cc1c(N2CC[C@@](N)(CO)C2)ccc2ccccc12"
  pIC50: "> 5.72"
- molecule: "[2H]C([2H])([2H])C([2H])([2H])NC(=O)[C@@]1(N)CCN(c2cc(Cl)cc(Br)c2Cn2cnc3c(N)ncnc32)C1"
  pIC50: "> 5.72"
- molecule: "Nc1ncnc2c1ncn2Cc1c(N2CC[C@](N)(C(=O)NC3CC3)C2)cc(CN2CCOCC2)c(F)c1Cl"
  pIC50: "> 5.72"
- molecule: "Nc1ncnc2c1ncn2Cc1c(Br)c(Cl)c2c(c1N1CC[C@](N)(C(=O)NC3CC3)C1)OCC2"
  pIC50: "> 5.72"
- molecule: "CCCNC(=O)CCNC(=O)[C@@]1(N)CCN(c2ccc(F)c(C(F)(F)F)c2Cn2cnc3c(N)ncnc32)C1"
  pIC50: "> 5.72"
- molecule: "CCc1c(Cl)ccc(N2CC[C@](N)(C(=O)NCCS(=O)(=O)CC)C2)c1Cn1cnc2c(N)ncnc21"
  pIC50: "> 5.72"
- molecule: "Nc1ncnc2c1ncn2Cc1c(N2CC[C@](N)(C(=O)NC3CC3)C2)ccc2c1OC(F)(F)O2"
  pIC50: "> 5.72"
- molecule: "CC1(C)Cc2ccc(N3CC[C@](N)(C(=O)NC4CC4)C3)c(Cn3cnc4c(N)ncnc43)c2O1"
  pIC50: "< 5.52"
- molecule: "Nc1ncnc2c1ncn2Cc1c(N2CC[C@](N)(C(=O)NC3CC3)C2)ccc(F)c1CN1CCC1"
  pIC50: "> 5.72"
- molecule: "C=CC(=O)N1CCN(C(=O)[C@@]2(N)CCN(c3ccc(F)c(CC)c3Cn3cnc4c(N)ncnc43)C2)CC1"
  pIC50: "> 5.72"
- molecule: "CCc1c(Cl)ccc(N2CC[C@](N)(C(=O)NCCS(=O)(=O)c3ccccc3)C2)c1Cn1cnc2c(N)ncnc21"
  pIC50: "> 5.72"
- molecule: "CCc1cc(-c2cscn2)cc(N2CC[C@](N)(C(=O)NC3CC3)C2)c1Cn1cnc2c(N)ncnc21"
  pIC50: "> 5.72"
- molecule: "Nc1ncnc2c1ncn2Cc1c(N2CC[C@](N)(C(=O)NC3CC3)C2)ccc(F)c1CC(F)(F)F"
  pIC50: "> 5.72"
- molecule: "Nc1ncnc2c1ncn2Cc1c(Br)cc(Cl)cc1N1CC[C@](N)(c2cc(C(F)(F)F)ccn2)C1"
  pIC50: "< 5.52"
- molecule: "Nc1ncnc2c1ncn2Cc1c(N2CC[C@](N)(C(=O)NC3CC3)C2)ccc(OC(F)(F)F)c1Br"
  pIC50: "> 5.72"
- molecule: "Nc1ncnc2c1ncn2Cc1c(N2CC[C@](N)(C(=O)N3CCn4nncc4C3)C2)ccc(F)c1C(F)(F)F"
  pIC50: "> 5.72"
- molecule: "Nc1ncnc2c1ncn2Cc1c(N2CCC(N)(C(=O)NC3CC3)C2)ccc(C(F)(F)F)c1Cl (centres unmarked)"
  pIC50: "> 5.72"
- molecule: "Cc1c(C(F)(F)F)ccc(N2CC[C@](N)(C(=O)NC3CC3)C2)c1Cn1cnc2c(N)ncnc21"
  pIC50: "> 5.72"
- molecule: "Nc1ncnc2c1ncn2Cc1c(N2CC[C@](N)(C(=O)NC3CC3)C2)ccc(F)c1CN1CCC(F)(F)CC1"
  pIC50: "> 5.72"
- molecule: "CCc1cc(Cl)cc(N2CC[C@](N)(CCc3nnc(NC)s3)C2)c1Cn1cnc2c(N)ncnc21"
  pIC50: "< 5.52"
- molecule: "COC(=O)[C@@]1(N)CCN(c2cc(Cl)cc(C3CCC3)c2Cn2cnc3c(N)ncnc32)C1"
  pIC50: "> 5.72"
- molecule: "Nc1ncnc2c1ncn2Cc1c(N2CC[C@](N)(C(=O)NC3CC3)C2)cc(Cl)c(Cl)c1CN1CCOCC1"
  pIC50: "> 5.72"
- molecule: "Nc1ncnc2c1ncn2Cc1c(N2CC[C@](N)(C(=O)NC3CC3)C2)ccc(F)c1Br"
  pIC50: "> 5.72"
- molecule: "CCc1cc(-c2cnccn2)cc(N2CC[C@](N)(C(=O)NC3CC3)C2)c1Cn1cnc2c(N)ncnc21"
  pIC50: "> 5.72"
